meta.source: ChEMBL document CHEMBL3885881

Below: a set of entries, each annotated with reported ALANINE AMINOTRANSFERASE.
species: Rattus norvegicus; assay: DrugMatrix - Regimen: Daily Repeat; type: toxicity, organism-based, Sprague-Dawley; design: regimen Daily Repeat, gender Male, age 6-8 weeks; conditions: in vivo, po, 10 mg/kg, 72 h, tissue Plasma, route oral GAVAGE, dose level Low, time 3 day, […]
Reported endpoint: ALANINE AMINOTRANSFERASE (u/L)

INSERT INTO assay_data (compound, endpoint_unit, recorded_value) VALUES
  ('COCCOC(=O)C1=C(C)NC(C)=C(C(=O)OC(C)C)C1c1cccc([N+](=O)[O-])c1 (centres undefined)', 'u/L', 72.67),
  ('COc1ccc2cc([C@H](C)C(=O)O)ccc2c1', 'u/L', 66),
  ('CC(C)CC(N(C)C)C1(c2ccc(Cl)cc2)CCC1 (centres undefined)', 'u/L', 61.33),
  ('CCOC(=O)C1=C(C)NC(C)=C(C(=O)OC)C1c1cccc([N+](=O)[O-])c1 (centres undefined)', 'u/L', 72);

* * *

species: Rattus norvegicus; test: DrugMatrix - Regimen: Daily Repeat; format: toxicity, organism-based, Sprague-Dawley; design: regimen Daily Repeat, gender Male, age 6-8 weeks; details: in vivo, po, 0 mg/kg, 120 h, tissue Plasma, route oral GAVAGE, dose level Control, time 5 day, vehicle 100 % WATER
Reported endpoint: CREATINE PHOSPHOKINASE (u/L)

INSERT INTO assay_data (compound, endpoint_unit, recorded_value) VALUES
  ('ClC(Cl)Cl [CHLOROFORM]', 'u/L', 255.33),
  ('Nc1ccn([C@@H]2CS[C@H](CO)O2)c(=O)n1', 'u/L', 248.33),
  ('C[N+](C)(C)CCO.[Cl-] [CHOLINE CHLORIDE]', 'u/L', 771.33),
  ('Cc1ncc([N+](=O)[O-])n1CCO', 'u/L', 255.33),
  ('COc1cc2ncnc(Nc3ccc(F)c(Cl)c3)c2cc1OCCCN1CCOCC1', 'u/L', 383.17),
  ('COC(=O)C1=C(C)NC(C)=C(C(=O)OCC(C)C)C1c1ccccc1[N+](=O)[O-] (stereo not given)', 'u/L', 253.33),
  ('CC(C)C[C@H](NC(=O)[C@@H](O)[C@H](N)Cc1ccccc1)C(=O)O', 'u/L', 381.5),
  ('C[C@@H]1C[C@@H]([C@H](O)CC2CC(=O)NC(=O)C2)C(=O)[C@@H](C)C1 [CYCLOHEXIMIDE]', 'u/L', 363.67),
  ('CC(C)NCC(O)COc1cccc2ccccc12 (stereo not given)', 'u/L', 281.83),
  ('CC(C)(C)c1ccc(C(=O)CCCN2CCC(OC(c3ccccc3)c3ccccc3)CC2)cc1', 'u/L', 323.17);

* * *

species: Rattus norvegicus; assay: DrugMatrix - Regimen: Daily Repeat; assay type: toxicity, organism-based, Sprague-Dawley; set-up: regimen Daily Repeat, gender Male, age 6-8 weeks; conditions: in vivo, po, 0 mg/kg, 72 h, tissue Blood, route oral GAVAGE, dose level Control, time 3 day, vehicle .5 % CMC
Reported endpoint: BASOPHIL (%)

INSERT INTO assay_data (compound, reported_endpoint, endpoint_unit, recorded_value) VALUES
  ('C#C[C@]1(O)CC[C@H]2[C@@H]3CCc4cc(OC)ccc4[C@H]3CC[C@@]21C', 'BASOPHIL', '%', 0),
  ('CC(C)[C@H]1CC[C@H](C(=O)N[C@H](Cc2ccccc2)C(=O)O)CC1 [NATEGLINIDE]', 'BASOPHIL', '%', 0),
  ('CC[C@@H](CO)NCCN[C@@H](CC)CO', 'BASOPHIL', '%', 0),
  ('N=C(N)NC(=O)c1nc(Cl)c(N)nc1N [AMILORIDE]', 'BASOPHIL', '%', 0),
  ('CN1C(=O)COc2c(C(=O)NC3CN4CCC3CC4)cc(Cl)cc21 (stereo unspecified)', 'BASOPHIL', '%', 0),
  ('O=C1CCC(N2C(=O)c3ccccc3C2=O)C(=O)N1 (stereo unspecified) [THALIDOMIDE]', 'BASOPHIL', '%', 1.52),
  ('CC(=O)CC(c1ccccc1)c1c(O)c2ccccc2oc1=O (stereo unspecified)', 'BASOPHIL', '%', 0),
  ('CO[C@H]1/C=C/O[C@@]2(C)Oc3c(C)c(O)c4c(c3C2=O)C2=NC3(CCN(CC(C)C)CC3)NC2=C(NC(=O)/C(C)=C\C=C\[C@H](C)[C@H](O)[C@@H](C)[C@@H](O)[C@@H](C)[C@H](OC(C)=O)[C@@H]1C)C4=O', 'BASOPHIL', '%', 0),
  ('O=[N+]([O-])c1ccccc1', 'BASOPHIL', '%', 0.62),
  ('OC(CCN1CCCCC1)(c1ccccc1)C1CCCCC1 (stereo unspecified)', 'BASOPHIL', '%', 0),
  ('C[C@]1(Cn2ccnn2)[C@H](C(=O)O)N2C(=O)C[C@H]2S1(=O)=O', 'BASOPHIL', '%', 0),
  ('CN1CCC(=C2c3ccccc3C=Cc3ccccc32)CC1', 'BASOPHIL', '%', 0),
  ('Clc1ccc2c(c1)C(N1CCNCC1)=Nc1ccccc1O2', 'BASOPHIL', '%', 0),
  ('Cc1onc(-c2ccccc2)c1-c1ccc(S(N)(=O)=O)cc1', 'BASOPHIL', '%', 0.68),
  ('C[C@](O)(CS(=O)(=O)c1ccc(F)cc1)C(=O)Nc1ccc(C#N)c(C(F)(F)F)c1 [(R)-BICALUTAMIDE]', 'BASOPHIL', '%', 0),
  ('CNC(=C[N+](=O)[O-])NCCSCc1ccc(CN(C)C)o1', 'BASOPHIL', '%', 0);

* * *

organism: Rattus norvegicus; test: DrugMatrix - Regimen: Daily Repeat; assay type: toxicity, organism-based, Sprague-Dawley; set-up: regimen Daily Repeat, gender Male, age 6-8 weeks; conditions: in vivo, po, 0 mg/kg, 120 h, tissue Plasma, route oral GAVAGE, dose level Control, time 5 day, vehicle 100 % WATER
Reported endpoint: ASPARTATE AMINOTRANSFERASE (u/L)

INSERT INTO results (molecule, recorded_value) VALUES
  ('CC(C)C[C@H](NC(=O)[C@@H](O)[C@H](N)Cc1ccccc1)C(=O)O', 92.5),
  ('COc1cc2ncnc(Nc3ccc(F)c(Cl)c3)c2cc1OCCCN1CCOCC1', 83),
  ('ClC(Cl)Cl [CHLOROFORM]', 81.67),
  ('Nc1ccn([C@@H]2CS[C@H](CO)O2)c(=O)n1', 85.67),
  ('CC(C)NCC(O)COc1cccc2ccccc12 (stereo not given)', 88),
  ('Cc1ncc([N+](=O)[O-])n1CCO', 81.67),
  ('COC(=O)C1=C(C)NC(C)=C(C(=O)OCC(C)C)C1c1ccccc1[N+](=O)[O-] (stereo not given)', 81),
  ('C[C@@H]1C[C@@H]([C@H](O)CC2CC(=O)NC(=O)C2)C(=O)[C@@H](C)C1 [CYCLOHEXIMIDE]', 77.5),
  ('C[N+](C)(C)CCO.[Cl-] [CHOLINE CHLORIDE]', 99.5),
  ('CC(C)(C)c1ccc(C(=O)CCCN2CCC(OC(c3ccccc3)c3ccccc3)CC2)cc1', 86);

* * *

Measured NEUTROPHIL accompanies every entry in the list below.
species: Rattus norvegicus; test: DrugMatrix - Regimen: Daily Repeat; format: toxicity, organism-based, Sprague-Dawley; set-up: regimen Daily Repeat, gender Male, age 6-8 weeks; conditions: in vivo, po, 0 mg/kg, 72 h, tissue Blood, route oral GAVAGE, dose level Control, time 3 day, vehicle .5 % CMC
Reported endpoint: NEUTROPHIL

INSERT INTO measurements (compound, reported_endpoint, recorded_value) VALUES
  ('C#C[C@]1(O)CC[C@H]2[C@@H]3CCc4cc(OC)ccc4[C@H]3CC[C@@]21C', 'NEUTROPHIL', '7.17%'),
  ('C[C@]1(Cn2ccnn2)[C@H](C(=O)O)N2C(=O)C[C@H]2S1(=O)=O', 'NEUTROPHIL', '9.33%'),
  ('CN1C(=O)COc2c(C(=O)NC3CN4CCC3CC4)cc(Cl)cc21 (stereo unspecified)', 'NEUTROPHIL', '8.5%'),
  ('Clc1ccc2c(c1)C(N1CCNCC1)=Nc1ccccc1O2', 'NEUTROPHIL', '12%'),
  ('CC(=O)CC(c1ccccc1)c1c(O)c2ccccc2oc1=O (stereo unspecified)', 'NEUTROPHIL', '7.17%'),
  ('CNC(=C[N+](=O)[O-])NCCSCc1ccc(CN(C)C)o1', 'NEUTROPHIL', '7.17%'),
  ('CO[C@H]1/C=C/O[C@@]2(C)Oc3c(C)c(O)c4c(c3C2=O)C2=NC3(CCN(CC(C)C)CC3)NC2=C(NC(=O)/C(C)=C\C=C\[C@H](C)[C@H](O)[C@@H](C)[C@@H](O)[C@@H](C)[C@H](OC(C)=O)[C@@H]1C)C4=O', 'NEUTROPHIL', '7.17%'),
  ('O=C1CCC(N2C(=O)c3ccccc3C2=O)C(=O)N1 (stereo unspecified) [THALIDOMIDE]', 'NEUTROPHIL', '18.6%'),
  ('O=[N+]([O-])c1ccccc1', 'NEUTROPHIL', '9.1%'),
  ('Cc1onc(-c2ccccc2)c1-c1ccc(S(N)(=O)=O)cc1', 'NEUTROPHIL', '11.16%'),
  ('N=C(N)NC(=O)c1nc(Cl)c(N)nc1N [AMILORIDE]', 'NEUTROPHIL', '19.83%');
